# System: OvCAR3 cells
# test summary: Cellular proliferation / Cytotoxicity assay (Alamar Blue / Resazurin cell viability)
# Format: cell-based
# study conditions: Homo sapiens, OVCAR-3, 48h incubation, read-out: Anti-proliferative / Cytotoxic activity (OvCAR3 cells)
value type: IC50

Examples with their reported IC50 follow.
> print(dat)
                                smiles.text  assayed.system  endpoint.result
1  Cc1cccn2c(-c3ccccc3)c(-c3ccc(CN4CCC(c5n[nH]c(-c6ccccn6)n5)CC4)cc3)nc12    OvCAR3 cells          < 10 µM
2  c1ccc(-c2c(-c3ccc(CN4CCC(c5n[nH]c(-c6ccccn6)n5)CC4)cc3)nc3scnn23)cc1    OvCAR3 cells          < 10 µM
3  c1ccc(-c2c(-c3ccc(CN4CCC(c5n[nH]c(-c6ccccn6)n5)CC4)cc3)nc3sccn23)cc1    OvCAR3 cells          < 10 µM

List reported IC50 for each of these compounds:
1. c1ccc(-c2c(-c3ccc(CN4CCC(c5nc(-c6cnccn6)no5)CC4)cc3)nc3ncccn23)cc1
2. COc1ccc2nc(-c3ccc(CN4CCC(c5n[nH]c(-c6ccccn6)n5)CC4)cc3)c(-c3ccccc3)n2n1

Solution:
1: > 10 µM; 2: < 10 µM
